Reference source: patent US9067937B2

test system: HT1197 cells; test: Cell-based assay, anti-proliferative activity, MELK-negative control (Cell Counting Kit-8, 72 hours); design: species or system human; conditions: Homo sapiens, HT1197, 72 h, read-out: IC50 (μM) (HTll97)
Structures can show the parent of a compound that is named as a salt.
Recorded IC50, one value per entry.
experimental-endpoint: IC50

compound | target | result
CN(C)Cc1ccc(Nc2c(S(C)(=O)=O)cnc3ccc(-c4cc(Cl)c(O)c(Cl)c4)nc23)cc1 [Example 16, dihydrochloride] | HT1197 cells | 4.4 µM
CC(=O)c1cnc2ccc(-c3cc(F)c(O)c(Cl)c3)nc2c1Nc1ccc(NCCN(C)C)nc1 [Example 39, trihydrochloride] | HT1197 cells | 10 µM
CC(=O)c1cnc2ccc(-c3cc(F)c(O)c(Cl)c3)nc2c1Nc1ccc(N2CCCC(N)C2)nc1 (stereo not drawn) [Example 65, trihydrochloride] | HT1197 cells | 0.74 µM
